Target: SARS-CoV-2 main protease (M^pro) (Severe acute respiratory syndrome coronavirus 2)
Assay: Rapid-Fire MS Biochemical Assay measuring Mpro activity (5 nM Mpro)
Settings: Rapid-Fire Assay IC50, Table 1B, Mpro inhibition, 5 μM substrate peptide, 120 min
pIC50: −log10 of the molar value.
Consider the following compounds; for each one, report its pIC50.

Prompt: Return reported pIC50; argument: N#Cc1ccc(N2C[C@H](C#N)N(c3cncc4ccccc34)C2=O)cc1F (single isomer, unassigned) [Compound 73a]
Completion: > 7.70

Prompt: Need pIC50, item N#CC1CN(C2CCC(F)CC2)C(=O)N1c1cncc2ccccc12 (single isomer, unassigned) [Compound 121b]
Completion: > 7.70

Prompt: GET /values?readout=pIC50&item= N#Cc1ccc(N2C[C@@H](C#N)N(c3cncc4ccccc34)C2=O)cc1F (single isomer, unassigned) [Compound 73b]
Completion: 6.00 to 6.70

Prompt: Please give the measured pIC50 for this compound: N#C[C@H]1CN(C2CN(S(=O)(=O)C3CC3)C2)C(=O)N1c1cncc2ccccc12 (single isomer, unassigned) [Compound 131a]
Completion: 6.70 to 7.70

Prompt: Returns the measured pIC50 for the input compound. Input: N#C[C@@H]1CN(C2CN(S(=O)(=O)C3CC3)C2)C(=O)N1c1cncc2ccccc12 (single isomer, unassigned) [Compound 131b]
Completion: < 6.00

Prompt: Would you mind telling me what pIC50 value was observed for CC1CC(N2CC(C#N)N(c3cncc4ccccc34)C2=O)C1 (single isomer, unassigned) [Compound 120c] ?
Completion: < 6.00

###

Molecular target: UniProt:P0DTD1
Assay: Rapid-Fire MS Biochemical Assay measuring Mpro activity (5 nM Mpro)
Conditions: Table 1B, Mpro inhibition, 5 μM substrate peptide, 120 min, read-out: Rapid-Fire Assay IC50
pIC50: −log10 of the molar value.
Parameter: pIC50

Prompt: Lab request: please report pIC50 under test system UniProt:P0DTD1 for Cc1cnc(C(F)(F)F)nc1N1C[C@@H](C#N)N(c2cncc3ccccc23)C1=O (single isomer, unassigned) [Compound 62b]
Completion: < 6.00

Prompt: Recall the recorded pIC50 for Cn1c(C(F)(F)F)ccc(N2C[C@H](C#N)N(c3cncc4ccccc34)C2=O)c1=O (single isomer, unassigned) [Compound 96a] with UniProt:P0DTD1 and state it.
Completion: 6.70 to 7.70

Prompt: Which pIC50 is reported with UniProt:P0DTD1 for this entry: CC(C)[C@H]1C[C@H](N2C[C@H](C#N)N(c3cncc4ccccc34)C2=O)C1 [Compound 123b] ?
Completion: > 7.70

Prompt: Can you look up pIC50 on UniProt:P0DTD1 for N#C[C@H]1CN(c2cnc(C(F)(F)F)c(F)c2)C(=O)N1c1cncc2ccccc12 (single isomer, unassigned) [Compound 77a] ?
Completion: > 7.70

Prompt: Test system UniProt:P0DTD1; read-out pIC50; what value for N#CC1CN(c2cccc(OC(F)(F)F)c2)C(=O)N1c1cncc2ccccc12 (racemic) ?
Completion: > 7.70

Prompt: Item CC1CC(N2CC(C#N)N(c3cncc4ccccc34)C2=O)C1 (single isomer, unassigned) [Compound 120a] with UniProt:P0DTD1 - pIC50?
Completion: > 7.70

Prompt: What measured pIC50 is associated with Cn1ccc(N2C[C@H](C#N)N(c3cncc4ccccc34)C2=O)cc1=O (single isomer, unassigned) [Compound 67a] on UniProt:P0DTD1?
Completion: 6.70 to 7.70

Prompt: Record Cc1ccc(C(F)(F)F)cc1N1C[C@H](C#N)N(c2cncc3ccccc23)C1=O (single isomer, unassigned) [Compound 24a] : what is its pIC50 with UniProt:P0DTD1?
Completion: > 7.70

Prompt: // fetch UniProt:P0DTD1 pIC50 for N#C[C@H]1CN(c2cc(Cl)cnn2)C(=O)N1c1cncc2ccccc12 (single isomer, unassigned) [Compound 54a]
Completion: 6.70 to 7.70

Prompt: Provide value of pIC50 for this record tested with UniProt:P0DTD1: N#CC1CN(c2ccc(F)c(F)c2)C(=O)N1c1cncc2ccccc12 (racemic)
Completion: > 7.70

Prompt: Tell me reported pIC50 for C[C@H]1[C@H](C#N)N(c2cncc3ccccc23)C(=O)N1c1cccc(Cl)c1 (single isomer, unassigned) [Compound 43a] , tested with UniProt:P0DTD1.
Completion: > 7.70

Prompt: Observed pIC50 on UniProt:P0DTD1 for COc1ccc(F)cc1N1C[C@@H](C#N)N(c2cncc3ccccc23)C1=O (single isomer, unassigned) [Compound 105b] , please.
Completion: < 6.00

Prompt: # value lookup — system UniProt:P0DTD1, readout pIC50, item COc1ccc(C(F)(F)F)cc1N1C[C@H](C#N)N(c2cncc3ccc(S(C)(=O)=O)cc23)C1=O (single isomer, unassigned) [Compound 38a]
Completion: > 7.70

Prompt: GET /values?readout=pIC50&system=UniProt:P0DTD1&item= Cc1ccnc(N2C[C@@H](C#N)N(c3cncc4ccccc34)C2=O)n1 (single isomer, unassigned) [Compound 53b]
Completion: < 6.00

Prompt: Lab note: need pIC50 with UniProt:P0DTD1 for entry N#Cc1cccc(N2C[C@@H](C#N)N(c3cncc4ccccc34)C2=O)c1 (single isomer, unassigned) [Compound 52b] , please look it up.
Completion: 6.00 to 6.70

Prompt: API: value(readout=pIC50, system=UniProt:P0DTD1) for record N#C[C@@H]1CN([C@@H]2CCN(C(=O)CO)C2)C(=O)N1c1cncc2ccccc12 (single isomer, unassigned) [Compound 25b]
Completion: < 6.00

Prompt: Form: Entry = N#C[C@H]1CN(c2cccc(Cl)c2)C(=O)N1c1cncc2ccc(C(=O)O)cc12 (single isomer, unassigned) [Compound 33a] | System = UniProt:P0DTD1 | pIC50 = ____
Completion: > 7.70

Prompt: Under UniProt:P0DTD1: pIC50 value of N#C[C@@H]1CN(c2cccc(F)n2)C(=O)N1c1cncc2ccccc12 (single isomer, unassigned) [Compound 61b] ?
Completion: < 6.00

Prompt: Identify the measured pIC50 of N#CC1CN(C2CC(O)(C(F)(F)F)C2)C(=O)N1c1cncc2ccccc12 (racemic) for UniProt:P0DTD1.
Completion: 6.70 to 7.70

Prompt: Request - read-out pIC50 | tested on UniProt:P0DTD1 | molecule N#CC1CN(c2ccccc2)C(=O)N1c1cncc2ccccc12 (racemic)
Completion: 6.70 to 7.70

Prompt: Give pIC50 (UniProt:P0DTD1) of the following molecule: CN1CC(N2CC(C#N)N(c3cncc4ccccc34)C2=O)C1 (stereo not drawn)
Completion: < 6.00

Prompt: Recall the recorded pIC50 for Cn1cc(N2CC(C#N)N(c3cncc4ccccc34)C2=O)cn1 (racemic) with UniProt:P0DTD1 and state it.
Completion: 6.00 to 6.70

Prompt: Recall the recorded pIC50 for COc1cnc(C(F)(F)F)cc1N1C[C@@H](C#N)N(c2cncc3ccccc23)C1=O (single isomer, unassigned) [Compound 14b] with UniProt:P0DTD1 and state it.
Completion: < 6.00

Prompt: GET /values?readout=pIC50&system=UniProt:P0DTD1&item= N#C[C@@H]1CN(c2ccccc2)C(=O)N1c1cncc2ccccc12 (single isomer, unassigned)
Completion: < 6.00

Prompt: Enter reported pIC50 observed with UniProt:P0DTD1 for N#C[C@H]1CN(c2ccccc2)C(=O)N1c1cncc2ccccc12 (single isomer, unassigned)
Completion: > 7.70

Prompt: Given the entry N#C[C@H]1CN(c2cc(F)ccc2F)C(=O)N1c1cncc2ccccc12 (single isomer, unassigned) [Compound 109a] , what pIC50 was observed with UniProt:P0DTD1?
Completion: > 7.70

Prompt: Please tell me: pIC50 of Cc1cnc(C(F)(F)F)nc1N1C[C@H](C#N)N(c2cncc3ccccc23)C1=O (single isomer, unassigned) [Compound 62a] , system UniProt:P0DTD1?
Completion: 6.00 to 6.70
